PROCEDURE TEXT: Half-life in liver
Assay type: in vitro ADME
TEST PARAMETERS: unit inferred, unit assumed
t1/2 liver values, listed per item

| MOLECULE | t1/2 liver |
| --- | --- |
| CC(C)CC(NC(=O)OCc1ccccc1)C(=O)NC(Cc1ccccc1)C(=O)C(=O)O (stereo not drawn) [Z-Leu-Phe-COOH, reference compound] | > 1 h |
| CCCNC(=O)C(=O)[C@H](CC)NC(=O)[C@H](CC(C)C)NC(=O)OCc1ccccc1 | > 1 h |
| CCNC(=O)C(=O)[C@H](CC)NC(=O)[C@H](CC(C)C)NC(=O)OCc1ccccc1 | > 1 h |

###

PROCEDURE TEXT: Half-life in plasma
TEST PARAMETERS: unit inferred, unit assumed

| MOLECULE | INEQUALITY SIGN | t1/2 plasma / min |
| --- | --- | --- |
| CCNC(=O)C(=O)[C@H](CC)NC(=O)[C@H](CC(C)C)NC(=O)OCc1ccccc1 | > | 60 |
| CCOC(=O)C(=O)C(CC)NC(=O)C(CC(C)C)NC(=O)C(CC(C)C)NS(=O)(=O)c1ccc2ccccc2c1 (stereo not drawn) [2-NapSO2-Leu-Leu-Abu-COOEt, reference compound] | > | 60 |
| CC(C)CC(NC(=O)OCc1ccccc1)C(=O)NC(Cc1ccccc1)C(=O)C(=O)O (stereo not drawn) [Z-Leu-Phe-COOH, reference compound] | > | 60 |
| CCCCOC(=O)C(=O)[C@H](Cc1ccccc1)NC(=O)[C@H](CC(C)C)NC(=O)OCc1ccccc1 | = | 7.7 |
| CCOC(=O)C(=O)[C@H](CC)NC(=O)[C@H](CC(C)C)NC(=O)[C@H](CC(C)C)NC(=O)c1ccc2ccccc2c1 | = | 25 |

###

PROCEDURE TEXT: Half-life in plasma
TEST PARAMETERS: unit inferred, unit assumed
ATTRIBUTE MEASURED: t1/2 plasma (min)

| COMPOUND | UNIT OF MEASUREMENT | INEQUALITY SIGN | MEAS VALUE |
| --- | --- | --- | --- |
| CCC(NC(=O)C(CC(C)C)NC(=O)OCc1ccccc1)C(=O)C(=O)NCC(C)C (stereo not drawn) [Z-Leu-Abu-CONH-iBu, Z--Leu--Abu--CONH--iBu] | min | > | 60 |
| CCCNC(=O)C(=O)C(Cc1ccccc1)NC(=O)C(CC(C)C)NC(=O)OCc1ccccc1 (stereo not drawn) [Z-Leu-Phe-CONH-nPr, Z--Leu--Phe--CONH--nPr] | min | > | 60 |
| CC(C)CC(NC(=O)OCc1ccccc1)C(=O)NC(Cc1ccccc1)C(=O)C(=O)OCc1ccccc1 (stereo not drawn) [Z-Leu-Phe-COOBz] | min | = | 1.9 |
| CCCCC(NC(=O)C(CC(C)C)NC(=O)OCc1ccccc1)C(=O)C(=O)OCC (stereo not drawn) [Z-Leu-Nle-COOEt, reference compound] | min | = | 3.7 |

###

Reported t1/2 plasma values follow for various molecules
PROCEDURE TEXT: Half-life in plasma
TEST PARAMETERS: unit inferred, unit assumed

| MOLECULE | INEQUALITY SIGN | t1/2 plasma, min |
| --- | --- | --- |
| CCOC(=O)C(=O)[C@H](CC)NC(=O)[C@H](CC(C)C)NC(=O)OCc1ccccc1 [Z-Leu-Abu-COOEt, reference compound] | = | 2.8 |
| CCOC(=O)C(=O)C(CCSC)NC(=O)C(CC(C)C)NC(=O)OCc1ccccc1 (stereo not shown) | = | 8 |
| CCOC(=O)C(=O)C(Cc1ccccc1)NC(=O)C(CC(C)C)NC(=O)OCc1ccccc1 (stereo not drawn) [Z-Leu-Phe-COOEt, Z--Leu--Phe--COOEt, reference compound] | = | 7.8 |
| CCCCNC(=O)C(=O)C(Cc1ccccc1)NC(=O)C(CC(C)C)NC(=O)OCc1ccccc1 (stereo not shown) | > | 60 |
